Target: T1, human VEGFA165 (human, UniProt P15692-4 27-191)
T1 construct: Bought protein from two suppliers, treated as one molecule; the supplier is named under assay; also called antigen VEGFA
T1 sequence (P15692 other isoform, or with tags, fused parts or gaps limits assumed): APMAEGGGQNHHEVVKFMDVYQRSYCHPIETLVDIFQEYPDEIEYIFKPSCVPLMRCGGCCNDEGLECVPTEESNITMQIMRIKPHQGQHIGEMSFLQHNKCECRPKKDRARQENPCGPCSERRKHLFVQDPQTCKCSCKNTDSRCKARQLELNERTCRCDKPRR
Experiment: ELISA, coated human VEGFA165, anti-His detection
Experimental: Antigen human VEGFA165 (label-free, purchased from Sino Biological, Cat. No.: HPLC-10008-HNAH, hereinafter referred to as VEGFA) was diluted with ELISA coating buffer to a final concentration of 0.3 μg/mL and added to a microplate at 100 μL/well for coating at 4° C. overnight. […] The solution used for antibody dilution was PBS containing 0.1% Tween-20 (pH 7.4), i.e., PBST. […] The absorbance at 450 nm (OD450) was measured using a microplate reader. […]
Listing of recorded EC50 by entry.
Field: numeric (pM). Do not append units.

Examples with their reported EC50 follow.
>>> measurement("2V13-4m-NL (VHH, Tandem bivalent humanized nanobody) EVQLVESGGGLVQPGGSLRLSCAASGRTFTSYTMGWFRQAPGKEREFVVAISKGGYKYDAVSLEARFTISRDNAKNTVYLQMNSLRPEDTAVYYCAGTRAYGSSRLRLADTYEYWGQGTLVTVSSEVQLVESGGGLVQPGGSLRLSCAASGRTFTSYTMGWFRQAPGKEREFVVAISKGGYKYDAVSLEARFTISRDNAKNTVYLQMNSLRPEDTAVYYCAGTRAYGSSRLRLADTYEYWGQGTLVTVSS")
220
>>> measurement("2V1-DP-3GS (VHH, Tandem bivalent humanized nanobody) EVQLVESGGGLVQPGGSLRLSCAVSGRTFSSYTMGWFRQAPGKEREFVVAISKGGYKYDSVSLEARFTISRDNSKNTVYLQMNSLRPEDTAVYYCAATRAYGSSRLRLADTYEYWGQGTLVTVSSGGSEVQLVESGGGLVQPGGSLRLSCAVSGRTFSSYTMGWFRQAPGKEREFVVAISKGGYKYDSVSLEARFTISRDNSKNTVYLQMNSLRPEDTAVYYCAATRAYGSSRLRLADTYEYWGQGTLVTVSS")
270

**Query** Which EC50 value is on record for 2V30-2H-2m-NL (VHH, Tandem bivalent humanized nanobody) EVQLVESGGGLVQPGGSLRLSCAASGRTFSSYTMGWFRQAPGKEREFVVAISKGGYKYDAVSLEARFTISRDNSKNTVYLQMNSLRPEDTAVYYCAATRAYGSSRLRLAKTYEYWGQGTLVTVSSEVQLVESGGGLVQPGGSLRLSCAASGRTFSSYTMGWFRQAPGKEREFVVAISKGGYKYDAVSLEARFTISRDNSKNTVYLQMNSLRPEDTAVYYCAATRAYGSSRLRLAKTYEYWGQGTLVTVSS ?
**Result** 810
